Test system: methylphenidate induced stereotypies
Experiment: Methylphenidate Antagonism
Assay type: in vivo, mice
Measurement Context: Mus musculus, ip, read-out: MePh antg. ED50, i.p., mice, 2 hours before methylphenidate 60 mg/kg s.c.
Value Type: ED50

>>> print(df.to_string())
                                   compound        result
0  O=C1NCCN1CCN1CCN([C@@H]2C[C@@H](c3ccc(F)cc3)c3ccc(F)cc32)CC1 (single isomer, unassigned) [+2]  > 61 µmol/kg
1  Fc1ccc([C@@H]2C[C@@H](N3CCN(CCN4CCNC4=S)CC3)c3cc(Cl)ccc32)cc1 (relative stereo)   4.5 µmol/kg
2  O=C1OCCN1CCN1CCN([C@@H]2C[C@@H](c3ccc(F)cc3)c3ccccc32)CC1 (relative stereo)  > 83 µmol/kg
3  O=C1OCCN1CCN1CCN([C@@H]2C[C@@H](c3ccc(F)cc3)c3ccc(F)cc32)CC1 (relative stereo)    18 µmol/kg
4  OCCN1CCN([C@@H]2C[C@@H](c3ccc(F)cc3)c3ccc(C(F)(F)F)cc32)CC1 (racemic) [Tefludazine, reference compound]  0.06 µmol/kg
5  Fc1ccc([C@@H]2C[C@@H](N3CCN(CCN4CCNC4=S)CC3)c3cc(F)ccc32)cc1 (single isomer, unassigned) [+24]    17 µmol/kg
